B1: TPR 5TU (parent)
chain: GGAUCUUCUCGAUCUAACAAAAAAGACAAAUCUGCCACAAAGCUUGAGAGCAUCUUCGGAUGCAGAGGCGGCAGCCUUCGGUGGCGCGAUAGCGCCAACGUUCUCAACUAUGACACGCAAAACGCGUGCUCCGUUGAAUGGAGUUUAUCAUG

Variants of: B1
measurement-protocol: polymerase ribozyme fitness, log enrichment relative to wild type (log ratio); higher = more active; in vitro selection for triplet polymerase activity
Fewer inactive variants are shown than the library holds.
measurement-type: polymerase ribozyme fitness (log ratio)
// return a plain number; no unit text

A12C A19C C99U: -1.52
A22U C57A: -0.719
C18G C85U U101C: -0.76
G34U A39U C43A C85U G117A: -3.98
C69A G94C: -0.673

Recorded polymerase ribozyme fitness (log ratio) for C27G C38U A49C G65C C87G C114A A119G U145A , please?
-4.07
